These entries and their values trace back to ChEMBL document CHEMBL1961873.

Each entry below carries its recorded inhibition.
# Target Entity: Proto-oncogene tyrosine-protein kinase Src (Homo sapiens);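 also: values are averaged inhibition of Src, tested against the GSK PKIS kinase inhibitor set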
# Conditions Used: at 0.1 µM
Record the value in %, omitting the unit from your answer.

INSERT INTO results (chemical_smiles, value_kind, reported_result) VALUES
  ('COC(=O)Nc1nc2ccc(Oc3ccc(NC(=O)Nc4cccc(Cl)c4)cc3)cc2[nH]1', 'inhibition', 4.21);

Entry CC(C)(CO)CNC(=O)c1ccc2c(c1)/C(=N/Nc1ccc(S(N)(=O)=O)cc1)C(=O)N2 , inhibition reported as 5.77

Briefly, inhibition measured for CCc1nn2ncccc2c1-c1ccnc(NC2CC2)n1 : 6.38

What the record says about Fc1ccc(-c2nn3ncccc3c2-c2ccnc(Nc3ccc4c(c3)OCCO4)n2)cc1 : inhibition is 40.2

----------
Reported inhibition is given for each of the following compounds.
# Target Entity: Tyrosine-protein kinase BTK (Homo sapiens) (UniProt Q06187);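 also: values are mean percent inhibition of BTK across replicate measurements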
# Sequence (Q06187 whole entry): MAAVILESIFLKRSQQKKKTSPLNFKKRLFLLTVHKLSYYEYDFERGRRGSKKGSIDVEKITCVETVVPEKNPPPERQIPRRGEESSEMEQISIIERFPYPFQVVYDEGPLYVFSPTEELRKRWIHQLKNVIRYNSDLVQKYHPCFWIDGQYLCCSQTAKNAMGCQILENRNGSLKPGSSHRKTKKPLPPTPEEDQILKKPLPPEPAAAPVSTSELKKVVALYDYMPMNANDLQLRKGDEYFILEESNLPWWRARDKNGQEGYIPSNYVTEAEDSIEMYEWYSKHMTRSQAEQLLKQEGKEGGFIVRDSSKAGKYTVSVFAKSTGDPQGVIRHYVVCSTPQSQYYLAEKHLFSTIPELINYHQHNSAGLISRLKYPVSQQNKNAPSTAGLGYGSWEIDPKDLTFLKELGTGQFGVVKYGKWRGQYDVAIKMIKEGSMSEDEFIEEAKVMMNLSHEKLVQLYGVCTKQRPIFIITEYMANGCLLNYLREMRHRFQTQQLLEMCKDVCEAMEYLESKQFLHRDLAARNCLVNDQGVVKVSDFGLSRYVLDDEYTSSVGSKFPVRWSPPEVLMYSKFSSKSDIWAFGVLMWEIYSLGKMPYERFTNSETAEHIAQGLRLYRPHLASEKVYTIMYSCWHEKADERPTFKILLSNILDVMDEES
# Conditions Used: at 1 µM
# unit: % | format: bare number

Some solved cases for reference:
INSERT INTO assay_data (chemical_smiles, reported_result) VALUES
  ('COc1ccc(-c2nn3ncccc3c2-c2ccnc(Nc3ccc4c(c3)OCCO4)n2)cc1', 3.53),
  ('NC(=O)c1sc(-n2cnc3ccc(C(F)(F)F)cc32)cc1OCc1ccccc1Br', -2.44),
  ('c1ccc(COc2ccc(Nc3ncnc4ccc(-c5ccco5)cc34)cc2)cc1', 1.73);

Now examine the next entry.
inhibition for COc1cc(/C=N/Nc2ncnc3[nH]ncc23)ccc1O is 7.64

----------
# Target Entity: Cyclin-dependent kinase 2 (Homo sapiens);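 also: mean inhibition of CDK2 bound to cyclin A, from the GSK PKIS kinase inhibitor set screen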
# Conditions Used: at 0.1 µM
Value Kind: inhibition (%)
Answer in %, number only, no unit symbol.

The following compounds have reported results that may help.
INSERT INTO results (compound, target_entity, reported_result) VALUES
  ('CN1CCC(n2cnc(-c3ccc(F)cc3)c2-c2ccnc(Nc3ccccc3)n2)CC1', 'Cyclin-dependent kinase 2 (Homo sapiens)', 0.89),
  ('CC1=C(C(=O)Nc2cc(Cl)c3[nH]ncc3c2)C(c2ccc(C(F)(F)F)cc2)CC(=O)N1 (stereo not given)', 'Cyclin-dependent kinase 2 (Homo sapiens)', -0.94),
  ('COc1cc(/C=N/Nc2ncnc3[nH]ncc23)ccc1O', 'Cyclin-dependent kinase 2 (Homo sapiens)', 3.26),
  ('N#Cc1c(NC(=O)CN2CCOCC2)sc2c1CCCC2', 'Cyclin-dependent kinase 2 (Homo sapiens)', 3.4);

Per the records, this compound ( Cc1cccc2c1NC(=O)/C2=N\Nc1ccc(S(N)(=O)=O)cc1 ) has inhibition equal to 1.45

For reference, reported inhibition for CS(=O)(=O)CCNCc1coc(-c2ccc3ncnc(Nc4ccc(OCc5ccccc5)cc4)c3c2)c1 stands at 2.91

// recorded inhibition for Nc1nc(-c2cccc(Cl)c2)c(-c2ccc3ncccc3n2)s1 : 1.23

inhibition in this record for Cc1cccc(Nc2ncc(-c3ccccc3)o2)c1 : 4.32

Looking up c1ccc(-c2nc3n(c2-c2ccc4c(c2)OCO4)CCC3)nc1 , I found its inhibition recorded as 1.58

Short answer for CC(=O)NCc1cccc(C#Cc2cncnc2Nc2ccc(OCc3cccc(F)c3)c(Cl)c2)c1 : inhibition was 1.01

----------
In this section, each of the molecules is paired with its reported inhibition.
# Tested on: Serine/threonine-protein kinase B-raf (Homo sapiens), P15056 [V600E]
# Sequence (P15056 whole entry V600E): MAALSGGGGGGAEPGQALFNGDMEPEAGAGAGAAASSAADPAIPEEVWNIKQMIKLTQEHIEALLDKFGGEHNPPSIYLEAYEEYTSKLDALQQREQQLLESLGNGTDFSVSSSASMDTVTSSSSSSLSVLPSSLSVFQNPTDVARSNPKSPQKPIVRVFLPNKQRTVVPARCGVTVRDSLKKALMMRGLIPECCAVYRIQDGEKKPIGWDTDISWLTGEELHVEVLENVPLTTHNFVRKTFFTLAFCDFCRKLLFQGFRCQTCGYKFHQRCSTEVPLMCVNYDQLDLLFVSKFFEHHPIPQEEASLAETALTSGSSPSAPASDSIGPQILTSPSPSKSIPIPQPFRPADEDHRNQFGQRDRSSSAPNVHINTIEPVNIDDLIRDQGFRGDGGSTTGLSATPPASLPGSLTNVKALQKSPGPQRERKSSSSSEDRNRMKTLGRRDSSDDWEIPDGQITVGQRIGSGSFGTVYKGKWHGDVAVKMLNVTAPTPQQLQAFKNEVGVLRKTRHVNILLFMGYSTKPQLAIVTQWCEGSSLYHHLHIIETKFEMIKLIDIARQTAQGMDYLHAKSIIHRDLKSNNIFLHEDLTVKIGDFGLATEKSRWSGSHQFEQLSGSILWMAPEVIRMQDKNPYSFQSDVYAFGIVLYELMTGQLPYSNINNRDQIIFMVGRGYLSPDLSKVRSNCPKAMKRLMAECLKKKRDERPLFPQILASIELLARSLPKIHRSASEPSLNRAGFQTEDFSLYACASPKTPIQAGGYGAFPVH
# Conditions Used: at 1 µM
# Description: GSK_PKIS: BRAF (V599E mutant) mean inhibition at 1 uM [Nanosyn]
Write down the numeric answer in % and omit the unit.

Example results:
INSERT INTO results (chemical_smiles, target_entity, readout_units, reported_result) VALUES
  ('COc1cccc(-c2c[nH]c3c(N/N=C/c4ccncc4)ncnc23)c1', 'Serine/threonine-protein kinase B-raf (Homo sapiens), P15056 [V600E]', '%', 11.2),
  ('N#Cc1c(NC(=O)c2ccc(F)cc2)sc2c1CCCC2', 'Serine/threonine-protein kinase B-raf (Homo sapiens), P15056 [V600E]', '%', 2.86),
  ('[O-][S+]1CCN(Cc2ccc(-c3ccc4ncnc(Nc5ccc(OCc6cccc(F)c6)c(Cl)c5)c4c3)o2)CC1', 'Serine/threonine-protein kinase B-raf (Homo sapiens), P15056 [V600E]', '%', 5.17),
  ('CC(C)COC(=O)c1ccc2c(c1)/C(=C/Nc1ccc(S(N)(=O)=O)cc1)C(=O)N2', 'Serine/threonine-protein kinase B-raf (Homo sapiens), P15056 [V600E]', '%', 34),
  ('COc1ccc(-c2cc3c(N)ncnc3o2)cc1', 'Serine/threonine-protein kinase B-raf (Homo sapiens), P15056 [V600E]', '%', 1.67);

inhibition in this record for COc1ccc2c(-c3ccnc(Nc4cccc(OC(F)(F)F)c4)n3)cnn2n1 : 6.12

GET /value?item= CN1CCC(n2cnc(-c3ccc(F)cc3)c2-c2ccnc(Nc3ccccc3)n2)CC1 &field=inhibition returns 6.57

Briefly, inhibition measured for Nc1nc(-c2ccc(F)cc2)c(-c2ccc3ncccc3n2)s1 : 7.92
